Tested on: Salmonella typhosa
Where a name gives a salt, the structure may show the parent alone.
Item-by-item account of MIC
Give the value, in units of µg/mL, as a plain number.

CNS(=O)(=O)c1ccc2c(c1)[I+]c1cc(S(=O)(=O)NC)ccc1O2 [7(b)] :: 500
CN1CCN(S(=O)(=O)c2ccc3c(c2)[I+]c2cc(S(=O)(=O)N4CCN(C)CC4)ccc2O3)CC1 [4(a), hydrobromide] :: 500
CC(=O)c1ccc2c(c1)[I+]c1cc(C(C)=O)ccc1O2 [1(a), dihydrate] :: 10
O=C(O)c1ccc2c(c1)[I+]c1cc(C(=O)O)ccc1O2 [6(a)] :: 10
COC(=O)c1ccc2c(c1)[I+]c1cc(C(=O)O)ccc1O2 [3(a), monohydrate] :: 10

Below: the item to evaluate.
// sample CCC(=O)c1ccc2c(c1)[I+]c1cc(C(=O)CC)ccc1O2 [2(a), hemihydrate] , its MIC was 50
